target: Glutamate receptor ionotropic, NMDA 1 (Rattus norvegicus); test: In vitro inhibition of the specific binding of [3H]Gly to N-methyl-D-aspartate glutamate receptor 1 in rat whole brain membranes except cerebellum
As shown below, each of these molecules has a reported Ki value.
Just the number please, in µM, no unit attached.

In [3]: df
Out[3]:
                                 mol_smiles  measured_result
0  COc1nc2[nH]c(=O)c(=O)[nH]c2cc1[N+](=O)[O-]             0.37

Now look at this one.
Input: Enter reported Ki observed with Glutamate receptor ionotropic, NMDA 1 (Rattus norvegicus) for "O=[N+]([O-])c1cc2nc(O)c(O)nc2nc1[N+](=O)[O-]"
Output: 8

* * *

Listing of recorded pKi by entry.
target: Glutamate receptor ionotropic, AMPA (Rattus norvegicus, UniProt P19490+P19491+P19492+P19493); experiment: In vitro inhibition of the specific binding of [3H]AMPA to Ionotropic glutamate receptor AMPA in rat whole brain membranes in the presence of […] KSCN
To interpret pKi, take it as minus log10 of a concentration measured in moles per litre.

Input: So what's the measured pKi for this one? "O=[N+]([O-])c1cnc2nc(O)c(O)nc2c1"
Output: 5.96

Input: // lookup pKi for "O=[N+]([O-])c1cc2nc(O)c(O)nc2nc1-n1ccnc1"
Output: 6.85

Input: Can you share its pKi? I mean this compound: "O=[N+]([O-])c1cc2nc(O)c(O)nc2nc1N1CCOCC1"
Output: 6.04

Input: Given the entry "O=[N+]([O-])c1cc2nc(O)c(O)nc2nc1[N+](=O)[O-]" , report its measured pKi.
Output: 6.07

Input: Find the recorded pKi belonging to "COc1nc2[nH]c(=O)c(=O)[nH]c2cc1[N+](=O)[O-]" and report it.
Output: 6.15

* * *

target: Glutamate receptor ionotropic, AMPA (Rattus norvegicus) (UniProt P19491+P19492+P19493+P19490); experiment: Inhibition [3H]AMPA binding to ionotropic glutamate receptor AMPA in rat whole brain membranes in the presence of […] KSCN; type: cell membranes
measurement_type: inhibition (%)
I only need the number, in %, no unit after it.

In [3]: df
Out[3]:
                   mol_smiles  measured_result
0       Cc1cnc2nc(O)c(O)nc2c1               74
1       Oc1ccc2nc(O)c(O)nc2n1               37
2  Oc1nc2ccc(N3CCOCC3)nc2nc1O               32
3      CNc1ccc2nc(O)c(O)nc2n1               30
4       Cc1ccc2nc(O)c(O)nc2n1               31
5  Oc1nc2ccc(-n3ccnc3)nc2nc1O               76
6            Oc1nc2ccncc2nc1O               32
7            Oc1nc2cccnc2nc1O               22
8            Oc1nc2cncnc2nc1O               62
9        Oc1nc2ccc(Cl)nc2nc1O               29

Input: Item "CS(=O)(=O)c1ccc2nc(O)c(O)nc2n1" has what recorded inhibition?
Output: 56

Input: Query: inhibition; subject: "CSc1ccc2nc(O)c(O)nc2n1"
Output: 55

Input: Quick check: inhibition of "COc1ccc2nc(O)c(O)nc2n1" ?
Output: 41

Input: I would be grateful if you could share the reported inhibition for "O=[N+]([O-])c1ccc2nc(O)c(O)nc2n1" .
Output: 66
